- Test system: 786-0 renal
- experimental-protocol: NCI-60 one-dose screen, 48 h
- assay-setup: 10 µM unless noted
About 83,000 compounds went through this panel and 20% of them were active in at least one assay; those are over-represented in the sample as a whole. Active and inactive are the calls of the source. How the source made its calls: active means growth percent below 10; inactive means the rest.
Outcomes: yes = active, no = inactive

1) COC(=O)[C@]12CC[C@@H](C)[C@H](C)[C@@H]1C1=CC[C@@H]3[C@@]4(C)C(C=O)=C[C@@](C)(COS(C)(=O)=O)C4[C@H](O)C[C@@]3(C)[C@]1(C)CC2 (some centres undefined) ... yes
2) O=Cc1ccc(O)c2ncccc12 ... no
3) COc1ccc2oc3c(C)c4c(c(C)c3c2c1)C(=O)N(Cc1ccccc1)C4=O ... no
4) COc1cc2c(cc1-c1c(C)noc1C)ncc1nc(C3CCC(F)(F)CC3)n(C3CCC(OC(F)F)CC3)c12 (centres undefined) ... no

====

Readings of growth for the listed compounds
- System: EKVX NSCLC
- experimental-protocol: NCI-60 one-dose screen, 48 h (100 = growth as untreated, 0 = no growth, -100 = all killed)
- assay-setup: 10 µM unless noted
The panel holds about 83,000 compounds, 20% with a hit somewhere; the sample as a whole holds those more often.
value-kind: growth (%)

1) NCCCNc1nc2ccccc2c2c(=O)c3cccc(Cl)c3sc12 ... 31.2
2) N#Cc1nc2c(S(=O)(=O)c3ccc(Cl)cc3)c(N)n(Nc3cccc(Cl)c3)c2nc1C#N ... 33.3
3) OC(COc1ccccc1Cl)COc1ccccc1Cl ... 106
4) C[n+]1cc2cc(C(N)=O)[nH]c3c(=N)c(Cl)c(N)c1c23 ... 101
5) O=C(c1ccccc1)c1c(/C=C/c2ccccc2)nc2ccccc2c1/C=C/c1ccc(Br)cc1 ... 102
6) COc1ccc(-c2nc(SC(C)C)nc(NNC(N)=S)c2C#N)cc1 ... 65.7
7) COc1ccc(NC(=O)c2nc(-c3cc(OC)c(OC)c(OC)c3)n(-c3cccc4ccccc34)n2)cc1OC ... 44.6
8) CCCCCS(=O)(=O)Nc1ccc(C(=O)O)cc1 ... 100
9) Cc1ccc(-c2c(-c3ccccc3)c(=O)oc3ccc(C)cc23)cc1 ... 96.9
10) O=C1Nc2ccccc2/C1=C/c1cn(C(=O)c2ccc(Cl)cc2)c2ccccc12 ... 59

====

- System: EKVX NSCLC
- experimental-protocol: NCI-60 one-dose screen, 48 h (100 = growth as untreated, 0 = no growth, -100 = all killed)
- assay-setup: 10 µM unless noted
The panel holds about 83,000 compounds, 20% with a hit somewhere; the sample as a whole holds those more often.
value-kind: growth (%)

1) Cc1nc2c(c(N3CCCc4ccccc43)n1)CCC2 ... 86.4
2) COc1ccc(S(=O)(=O)NCCNc2nccc(-c3c(-c4cccc(F)c4)nc4sccn34)n2)cc1 ... 39.7
3) CC1=C(SCCC(=O)OC(C[Se]C2=C(C)C(=O)c3ccccc3C2=O)C(=O)NCCCCCC(=O)OCc2ccccc2)C(=O)c2ccccc2C1=O (centres undefined) ... 55.8
4) COc1ccc(NC(=O)CSc2nc(C)c(C(C)=O)n2-c2ccc([N+](=O)[O-])cc2)cc1 ... 88.1
5) COc1ccc2cc(-c3cc(OC)c(OC)c(OC)c3)c(=O)oc2c1 ... 54.1
6) COc1cccc(-c2nn(-c3ccccc3)cc2-c2ccnc(NCCNC(=O)c3ccccc3)c2)c1 ... 66.6
7) CN1CCN(CCCOc2ccc3nc(Nc4ccc(F)c(F)c4)ccc3c2)CC1 ... 61.7
8) COc1ccc(C2c3ccc4ccccc4c3Oc3nc(C)[nH]c(=O)c32)cc1 (centres undefined) ... 103
9) O=[N+]([O-])c1ccc(-c2cc(-c3ccc(Nc4nc(Nc5ccc(Cl)cc5)nc(Nc5ccc(Cl)cc5)n4)cc3)no2)cc1 ... 92.9
10) NC(=N\N=C/c1cccc([N+](=O)[O-])c1)/C(N)=N\N=C/c1cccc([N+](=O)[O-])c1 ... 79.5
11) COc1ccc(-c2[nH]c(=S)n(C(CC3(C)NCC(=O)N3n3c(-c4ccccc4)cc(C)nc3=S)c3ccc(OC)cc3)c(=O)c2Br)cc1 (centres undefined) ... 60.5
12) Cc1c(C(=O)OC(=NC2CCCCC2)NC2CCCCC2)sc2c1c(=O)nc1c(C#N)n[nH]n12 ... 109
13) CCC1(C2CCCC2)NC(=O)NC1=O (centres undefined) ... 105
14) CC/C=C/C/C=C/C/C=C/C/C=C/C/C=C/C/C=C/CCC(=O)Nc1ccn([C@@H]2O[C@H](CO)[C@@H](O)C2(F)F)c(=O)n1 ... 70
15) N=C(N)c1ccc(-c2ccc(-c3cncc4ccccc34)s2)s1 ... -65.7
16) CCn1c(C)nc2cc(C(N)=O)ccc21 ... 142
17) CC(C)C(=O)Nc1n[nH]c2cc(-c3cccc(NS(=O)(=O)C4CC4)c3)ccc12 ... 71.7
18) O=C1Nc2ccc(F)cc2C12Nc1cc(Cl)ccc1S2 (centres undefined) ... 89.2
19) COc1cc(/C=C/C(=O)N2CCN(C(=O)c3cc(OC)c(OC)c(OC)c3)CC2)ccc1OCCCN1C(=O)c2cccc3cccc(c23)C1=O ... 114
